Please go through the items and note down their E^0.
# assay-explanation: Cyclic voltammetry of organic electrolytic solution
# Type: physicochemical
# test-parameters: unit inferred; Ag/Ag+ reference electrode (0.3 M AgNO3 in acetonitrile), carbon felt working electrode
Express your answer in V, writing the number without its unit.

// field: E^0; key: O=S(=O)([N-]S(=O)(=O)C(F)(F)F)C(F)(F)F.O=S(=O)([N-]S(=O)(=O)C(F)(F)F)C(F)(F)F.O=[N+]([O-])c1cc2cccnc2c2ncccc12.[Fe+2].c1ccc(-c2ccccn2)nc1.c1ccc(-c2ccccn2)nc1 [Preparation Example 2] ; value = 0.72

The recorded E^0 for O=S(=O)([N-]S(=O)(=O)C(F)(F)F)C(F)(F)F.O=S(=O)([N-]S(=O)(=O)C(F)(F)F)C(F)(F)F.[Fe+2].c1ccc(-c2ccccn2)nc1.c1ccc(-c2ccccn2)nc1.c1ccc(-c2ccccn2)nc1 [Preparation Example 4, Fe^2+-(bpy)3 [TFSI]2] is 0.68
